These entries and their values trace back to patent US4705805A.

inhibition at 100 µg/mL values for the compounds below.
- Test system: rabbit blood platelets (platelet rich plasma), collagen-induced aggregation
- Test: inhibition of platelet aggregation in rabbit platelet rich plasma (in vitro), induced by collagen
- Format: cell-based
- Protocol conditions: Oryctolagus cuniculus, Platelet; rabbit PRP; 100 μg/ml; read-out: percentage of inhibition, collagen
Give your result in % as a bare value.

// worked examples, inhibition at 100 µg/mL included
INSERT INTO results (compound, val) VALUES
  ('CCOCCCNC(=O)c1ccccc1SSc1ccccc1C(=O)NCCCOCC', 100),
  ('O=C(Nc1ccccc1Cl)c1ccccc1SSc1ccccc1C(=O)Nc1ccccc1Cl', 100),
  ('CCCCCCCCCCCCCCCC(=O)OC(C)CNC(=O)c1ccccc1SSc1ccccc1C(=O)NCC(C)OC(=O)CCCCCCCCCCCCCCC (stereo not shown)', 86);

Under rabbit blood platelets (platelet rich plasma), collagen-induced aggregation: inhibition at 100 µg/mL value of O=C(NC1CCC(O)CC1)c1ccccc1SSc1ccccc1C(=O)NC1CCC(O)CC1 (stereo not shown) ?
95

Under rabbit blood platelets (platelet rich plasma), collagen-induced aggregation: inhibition at 100 µg/mL value of CCCCCCCCCCCCCCCCCCNC(=O)c1ccccc1SSc1ccccc1C(=O)NCCCCCCCCCCCCCCCCCC [Compound VII, 2,2'-dithiobis(N-octadecylbenzamide)] ?
38

Under rabbit blood platelets (platelet rich plasma), collagen-induced aggregation: inhibition at 100 µg/mL value of O=C(Nc1cccc(Cl)c1)c1ccccc1SSc1ccccc1C(=O)Nc1cccc(Cl)c1 ?
100

Under rabbit blood platelets (platelet rich plasma), collagen-induced aggregation: inhibition at 100 µg/mL value of CCCCCCCCCCCCNC(=O)c1ccccc1SSc1ccccc1C(=O)NCCCCCCCCCCCC [Compound VI, 2,2'-dithiobis(N-dodecylbenzamide)] ?
89

* * *

inhibition at 3 µg/mL values for the compounds below.
- System: rabbit blood platelets (platelet rich plasma), ADP-induced aggregation
- Test: inhibition of platelet aggregation in rabbit platelet rich plasma (in vitro), induced by ADP
- Type: cell-based
- Protocol conditions: Oryctolagus cuniculus, Platelet; rabbit PRP; ADP 10^-5 M; 3 μg/ml; read-out: percentage of inhibition, ADP
Give your result in % as a bare value.

// worked examples, inhibition at 3 µg/mL included
INSERT INTO assay_data (compound, val) VALUES
  ('O=C(c1ccccc1SSc1ccccc1C(=O)N1CCOCC1)N1CCOCC1 [Compound XXVII, 2,2''-dithiobis(benzmorpholide)]', 40),
  ('COC(CNC(=O)c1ccccc1SSc1ccccc1C(=O)NCC(OC)OC)OC', 21),
  ('O=C(c1ccccc1SSc1ccccc1C(=O)N1CCN(Cc2ccccc2)CC1)N1CCN(Cc2ccccc2)CC1 [Compound IV, 2,2''-dithiobis(N''-benzylbenzpiperazide)]', 28);

Turning now to a further compound:
Under rabbit blood platelets (platelet rich plasma), ADP-induced aggregation: inhibition at 3 µg/mL value of O=C(NCCCO)c1ccccc1SSc1ccccc1C(=O)NCCCO ?
42

* * *

- Test: acute toxicity, Behrens-Karber's method
- Assay type: in vivo
- Protocol conditions: in vivo; mouse, oral
Result type: LD50

INSERT INTO assay_data (compound, val) VALUES
  ('CCOC(CN1CCN(C(=O)c2ccccc2SSc2ccccc2C(=O)N2CCN(CC(OCC)c3ccccc3)CC2)CC1)c1ccccc1 (stereo not drawn)', '≥ 1000 mg/kg');

GET /values?readout=LD50&item= O=C(c1ccccc1SSc1ccccc1C(=O)N1CCN(c2ccccc2)CC1)N1CCN(c2ccccc2)CC1 [Compound XXVIII, 2,2'-dithiobis(N'-phenylbenzpiperazide)]
≥ 1000 mg/kg

GET /values?readout=LD50&item= O=C(NC(CO)(CO)CO)c1ccccc1SSc1ccccc1C(=O)NC(CO)(CO)CO
≥ 1000 mg/kg
